assay: in vitro; conditions: human plasma
Where a SMILES comes first, the peptide text is derived from it. Bridges are numbered along the chain shown (N, C = ends). [ ]: non-standard residue; d: D form. The star is where a group is joined. Hexanoyl(3R-OH,5-Me) = CC(C)C[C@@H](O)CC(=O)*; dNMeF = CN[C@H](Cc1ccccc1)C(=O)O

compound	fraction unbound
CC[C@H](C)[C@@H]1NC(=O)[C@@H](Cc2c[nH]c3ccccc23)NC(=O)[C@@H](CCC(N)=O)NC(=O)[C@H](CCC(=O)O)NC(=O)[C@@H](CCCNC(=N)N)NC(=O)[C@H](CC(C)C)NC(=O)[C@@H](Cc2ccccc2)N(C)C(=O)CNC(=O)[C@H](CO)NC(=O)[C@@H](CCCNC(=N)N)NC(=O)[C@@H](NC(=O)C[C@H](O)CC(C)C)[C@@H](C)OC(=O)[C@H]([C@@H](C)O)NC1=O [Lysocin E, lysocin E] ({Hexanoyl(3R-OH,5-Me)}-T[dR]SG[dNMeF]L[dR]E[dQ][dW]IT; ester 1-C)	< 0.01
